Origin of measurements: patent US20250154277A1

Biological target: T1, cynomolgus 5T4 protein (cynomolgus monkey, UniProt Q4R8Y9 35-355, limits assumed)
T1 construct: Coated protein in ELISA; the screening step names a cyno 5T4-His protein; also called cyno 5T4; recombinant cyno 5T4-His protein
T1 sequence (looked up): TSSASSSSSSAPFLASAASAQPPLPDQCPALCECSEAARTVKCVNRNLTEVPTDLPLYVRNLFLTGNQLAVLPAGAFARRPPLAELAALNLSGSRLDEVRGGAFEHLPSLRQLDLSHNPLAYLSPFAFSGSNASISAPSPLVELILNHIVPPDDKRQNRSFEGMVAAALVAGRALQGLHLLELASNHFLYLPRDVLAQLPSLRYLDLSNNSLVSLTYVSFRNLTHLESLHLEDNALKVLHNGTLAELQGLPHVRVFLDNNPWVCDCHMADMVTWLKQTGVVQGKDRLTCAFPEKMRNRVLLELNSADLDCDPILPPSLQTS
Experiment: ELISA, coated antigen
Flag rule - EC50 less than 0.2 nM flags yes (1); the remaining entries get no (0).

Is EC50 of 393E9 chimeric antibody (antibody, V domains shown, chimeric mAb) VH: EVKLVESGGGLVQPGGSLSLSCAASGFTFTDYYMSWVRQPPGKALEWLGFIRNKGNGYTTENSASVKGRFTISRDNSQSILYLQMNALRAEDSATYYCARYRGNPHYAMDYWGQGTSVTVSS VL: DIVLTQFPASLAVSLGQRATISCRASESVEFYGTSFLQWYQQKPGQPPKLLIYGASNVESGVPARFSGSGSGTDFSLSIHPVEEDDIAMYFCQQSRKVPSTFGGGTKLEIK strictly below 0.2 nM?
yes (1)

Is EC50 of 353H11 chimeric antibody (antibody, V domains shown, chimeric mAb) VH: QVQLQQPGTELVKPGASVKLSCKASDYTFTSYWMHWVKQRPEQGLEWIGNINPSNGNTNYNEKFKNKATLTVDKSSSTAYMQLSSLTFEDSAVYYCARGGWDFDYWGQGTTLTVSS VL: QVVLTQSPAIMSASPGEKVTMTCSASSSVRYMHWYQQRSGTSPKRWIYDTSKLTSGVPARFSGSGSGTSYSLTISSMEAEDAATYYCQLWTSKPPWTFGGGTKLEIR strictly below 0.2 nM?
yes (1)

Is EC50 of 37G6 chimeric antibody (antibody, V domains shown) VH: QVQLQQPGAELVKPGASVKMSCKASGYTFTSYWITWVKQRPGQGLERIGDIYPGSGTINYNEKFKSKATLTVDTSSSTAYMQLSSLTSEDSAVYCCARSDGNYYFDYWGQGTTLKVSS VL: QIVLSQSPAILSASPGEKVTMTCRASSSVNYMHWYQQKPGSSPKPWIYATSNLASGVPVRFSGSGSGTSYSLTISRVEAEDAATYYCQQWSSNPPTFGGGTKLEIK strictly below 0.2 nM?
no (0)

Is EC50 of 109H7 chimeric antibody (antibody, V domains shown, chimeric mAb) VH: QVQLQQSGAELMKPGASVKLSCKATGYTFTGYWIEWVKQRPGQGLEWIGETLPGRGSTNYNEKFKGKATFTADTSSNIVYMQLSSLTIEDSAIYYCARGRRDFDYWGQGTTLTVSS VL: DIQMTQTTSSLSASLGDEVTISCSASQGINNYLNWYQQKPDGTVKLLIYYTSSLHSGVPSRFSGSGSGTDYSLTIINLEPEDIATYYCQQFSKLPFTFGSGTKLEIR strictly below 0.2 nM?
yes (1)
